Reported melting point values follow for various compounds

Here's what some known entries look like.
>>> observed("COCCNS(=O)(=O)c1ccc2[nH]c(=O)c(=O)[nH]c2c1")
"264 to 267 °C"
>>> observed("Cn1nc(-c2cccc(C(F)(F)F)c2)c(Br)c1C(=O)O")
"182 to 184 °C"
>>> observed("C=C(C)C(=O)OCCCOc1ccc2cc(OC(=O)C(=C)C)ccc2c1")
"68 °C"
>>> observed("CS(=O)(=O)c1ccc(NCCc2[nH]c3c(cnc4cc(Cl)ccc43)c2C=NNc2ccccc2)cc1")
"185 to 186 °C"

// melting point lookup, compound = COC(=O)C(Cc1c[nH]c2ccccc12)NC(=O)c1ccc2c(c1)OCO2 (centres undefined) , result: 123 to 124 °C

melting point reading for CN1CCN(c2nc3sc4c(NCCc5ccccn5)ncnc4c3c3c2COC(C)(C)C3)CC1 : 227 to 229 °C

Entry under test: CCOC(=O)[C@H](Cc1ccc(-c2c(OC)cc(C=O)cc2OC)cc1)NC(=O)c1c(F)cccc1F . Its melting point was 114 to 116 °C

Reported melting point ( CC(=O)CNC1(c2ccc(OCCCN(C)C3CCCCC3)cc2)Sc2ccccc2N(C)C1=O (centres undefined) ) = 119 to 120 °C

Entry CC(C)(S)CN(Cc1ccccc1)C(=O)CCC(=O)O , melting point reported as 123 to 126 °C
